# credit: patent US20240108738A1

pKd: recorded values
target_desc: T1, Human NKp46 Fc tag (Acro Biosystems, NC1-H5257) (human, UniProt O76036 22-255)
T1 construct: bought; also called Fc-tagged human NKp46
assay_summary: SPR Method 1 and/or 2
Numbered stars: 1 amine (or outer) side, 2 acyl side, 3 side chain; on linkers, the order of the positions; unused ones are H or OH. Bridge positions count the residues as written; N and C are the ends. Square brackets hold non-standard residues; d marks the D form. Ends that are not written are not given here. * marks the point of attachment. TATA = O=C(CC[*:1])N1CN(C(=O)CC[*:2])CN(C(=O)CC[*:3])C1; Tyr(2-F) = N[C@@H](Cc1ccc(O)cc1F)C(=O)O; tBuAla = CC(C)(C)C[C@H](N)C(=O)O; Cha = N[C@@H](CC1CCCCC1)C(=O)O; Cba = N[C@@H](CC1CCC1)C(=O)O; Pent4ynoyl = C#CCCC(=O)*
Interpret pKd as the negative base-10 log of the concentration measured in mol/L.

Input: Please give the measured pKd for this binder: ACK(Pent4ynoyl)LPDYLCGDEYCA-NH2 (linker 2-9-14 via TATA; N-terminus assumed; SMILES C#CCCC(=O)NCCCC[C@@H]1NC(=O)[C@@H](NC(=O)[C@H](C)N)CSCCC(=O)N2CN3CN(C2)C(=O)CCSC[C@@H](C(=O)N[C@@H](C)C(N)=O)NC(=O)[C@H](Cc2ccc(O)cc2)NC(=O)[C@H](CCC(=O)O)NC(=O)[C@H](CC(=O)O)NC(=O)CNC(=O)[C@H](CSCCC3=O)NC(=O)[C@H](CC(C)C)NC(=O)[C@H](Cc2ccc(O)cc2)NC(=O)[C@H](CC(=O)O)NC(=O)[C@@H]2CCCN2C(=O)[C@H](CC(C)C)NC1=O, scaffold TATA) [BCY16834]
Output: 7.08

Input: Please give the measured pKd for this binder: Ac-CY[Cba]PD[Tyr(2-F)]LC[dA]DEYC-NH2 (linker 1-8-13 via TATA, scaffold TATA) [BCY19687]
Output: 7.55

---
Input: Please give the measured pKd for this binder: Ac-[dC]Y[Cba]PDYLC[dA]DEYC-NH2 (linker 1-8-13 via TATA, scaffold TATA) [BCY19693]
Output: 7.77

Input: Please give the measured pKd for this binder: ACNLQAPCM[Cha]TGKVCA-NH2 (linker 2-8-15 via TATA; also: Cha: filing contradicts itself on L or D, scaffold TATA) [BCY18321]
Output: 6.26

Input: Please give the measured pKd for this binder: ACNLQLHNCIWGVCA-NH2 (linker 2-9-14 via TATA; also: scaffold TATA, TATB or TBMT, scaffold TATA) [BCY15109]
Output: 6.56

Input: Please give the measured pKd for this binder: ACN[tBuAla]QAPCMLTGKVCA-NH2 (linker 2-8-15 via TATA, scaffold TATA) [BCY18307]
Output: 5.68

Input: Please give the measured pKd for this binder: Ac-CY[Cba]PNYLC[dA]DEYC-NH2 (linker 1-8-13 via TATA; SMILES CC(=O)N[C@H]1CSCCC(=O)N2CN3CN(C2)C(=O)CCSC[C@H](NC(=O)[C@H](CC(C)C)NC(=O)[C@H](Cc2ccc(O)cc2)NC(=O)[C@H](CC(N)=O)NC(=O)[C@@H]2CCCN2C(=O)[C@H](CC2CCC2)NC(=O)[C@H](Cc2ccc(O)cc2)NC1=O)C(=O)N[C@H](C)C(=O)N[C@@H](CC(=O)O)C(=O)N[C@@H](CCC(=O)O)C(=O)N[C@@H](Cc1ccc(O)cc1)C(=O)N[C@H](C(N)=O)CSCCC3=O, scaffold TATA) [BCY18441]
Output: 8.11
